target: T1, Anti-CD28 Fab (SEQ ID NOs: 696, 697); test: phage ELISA; captured anti-CD28 Fab pre-incubated with CD28 antigen as competitor, anti-M13 HRP;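 note: crude clonal phage supernatants added without washing after CD28 pre-incubation, bound phage detected with HRP anti-M13 antibody, reference wells got blocking buffer lacking CD28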
T1 construct: In the phage ELISA the Fab was biotinylated and captured on neutravidin coated plates
T1 sequence (VH, as listed by the source, chain 1 of 2): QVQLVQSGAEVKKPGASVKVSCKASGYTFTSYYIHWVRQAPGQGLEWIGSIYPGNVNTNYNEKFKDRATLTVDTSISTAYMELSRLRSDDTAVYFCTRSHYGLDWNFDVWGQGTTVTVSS
T1 sequence (VL, as listed by the source, chain 2 of 2): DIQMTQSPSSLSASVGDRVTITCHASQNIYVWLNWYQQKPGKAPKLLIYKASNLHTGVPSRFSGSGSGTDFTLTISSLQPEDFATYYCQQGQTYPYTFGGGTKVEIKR
The entries below are paired with their reported Anti-CD28 Fab signal in the presence of CD28 (phage binding ELISA).
MEASUREMENT TYPE: Anti-CD28 Fab signal in the presence of CD28 (phage binding ELISA)

{"columns": ["BINDER", "OBS VALUE"],
 "data": [
  ["YCDGHLEEYKQKCL (Clonal phage of the Peptide-87 library, tested as crude phage supernatant; not shown: pIII of the bacteriophage to which the peptide is fused) [Phage-615]", 0.08],
  ["YCEGHAEEYMQKCL (Clonal phage of the Peptide-87 library, tested as crude phage supernatant; not shown: pIII of the bacteriophage to which the peptide is fused) [Phage-613]", 0.06],
  ["YCDGHSIEYRWKCL (Clonal phage of the Peptide-87 library, tested as crude phage supernatant; not shown: pIII of the bacteriophage to which the peptide is fused) [Phage-612]", 0.06],
  ["YCAGHLPEYFLKCL (Clonal phage of the Peptide-87 library, tested as crude phage supernatant; not shown: pIII of the bacteriophage to which the peptide is fused) [Phage-606]", 0.08],
  ["YCMGHLPQYMQKCL (Clonal phage of the Peptide-87 library, tested as crude phage supernatant; not shown: pIII of the bacteriophage to which the peptide is fused) [Phage-616]", 0.11],
  ["YCDGHLPQYKAKCL (Clonal phage of the Peptide-87 library, tested as crude phage supernatant; not shown: pIII of the bacteriophage to which the peptide is fused) [Phage-610]", 0.09],
  ["YCDGHLPEYIEKCL (Clonal phage of the Peptide-87 library, tested as crude phage supernatant; not shown: pIII of the bacteriophage to which the peptide is fused) [Phage-609]", 0.07],
  ["YCDGHTQEYIAKCL (Clonal phage of the Peptide-87 library, tested as crude phage supernatant; not shown: pIII of the bacteriophage to which the peptide is fused) [Phage-617]", 0.06],
  ["YCDGHLPEYLSKCL (Clonal phage of the Peptide-87 library, tested as crude phage supernatant; not shown: pIII of the bacteriophage to which the peptide is fused) [Phage-605]", 0.07]
]}

Measured values drawn from patent US20260242478A1 for this set.
